Molecular target: Pro-neuregulin-1, membrane-bound isoform (Homo sapiens)
Assay: NRG1 binders on small-molecule microarrays, primary screen, psychiatric disease protein project, biochemical, small-molecule microarray, fluorescence 635/667 (AID 1075);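 also: score combines 667 nm spot fluorescence with signal to noise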
Conditions: NRG1 binding, 635 nm fluorescence, higher = more signal
Readout: composite z-score

>  <Molecule>
NC(=O)NCC#Cc1ccc2c(c1)[C@]1(C(=O)N2)[C@H](C(=O)N2CCCCCCC2)[C@H]2C(=O)O[C@H](c3ccccc3)[C@H](c3ccccc3)N2[C@@H]1c1ccc(OCCO)cc1

>  <Numeric readout>
0.463

$$$$
>  <Molecule>
CC(C)N1C(=O)[C@@]2(c3ccc([N+](=O)[O-])cc3)CC(=O)N(CC34CC5CC(CC(C5)C3)C4)[C@@H]2c2ccc(CO)cc21

>  <Numeric readout>
-0.34

$$$$
>  <Molecule>
COCC(=C=CC[C@H](O)c1ccc(OCCO)cc1)C[C@H](O)c1cc(Cl)cc(Cl)c1O

>  <Numeric readout>
0.458

$$$$
>  <Molecule>
O=C1C[C@]2(c3ccc([N+](=O)[O-])cc3)C(=O)N(CC(F)(F)F)c3cc(CO)ccc3[C@H]2N1CC12CC3CC(CC(C3)C1)C2

>  <Numeric readout>
-0.0962

$$$$
>  <Molecule>
CO[C@H]1O[C@H](CO)[C@@H](OC(=O)Nc2ccc(Oc3ccccc3)cc2)[C@H](OC(=O)Nc2ccccc2)[C@H]1OC(=O)Nc1ccccc1

>  <Numeric readout>
1.3

$$$$
>  <Molecule>
Cc1ccc([C@H]2C(C(=O)O)=C[C@@H](C)N2S(=O)(=O)c2ccc(C)cc2)cc1

>  <Numeric readout>
1.52

$$$$
>  <Molecule>
C=CC[C@]1(C(=O)N2CCOCC2)N=C(c2ccc(OCCCO)cc2)O[C@H]1c1ccccc1

>  <Numeric readout>
2.1

$$$$
>  <Molecule>
C=CCOC(=O)[C@H]1[C@@H]2C(=O)O[C@@H](c3ccccc3)[C@@H](c3ccccc3)N2[C@@H](c2ccc(OCCOC(=O)[C@@H]3C[C@@H]4C(=O)N5CCC[C@H]5C(=O)N4[C@@H]3c3ccc(O)cc3)cc2)[C@]12C(=O)Nc1ccccc12

>  <Numeric readout>
0.771

$$$$
>  <Molecule>
CC(C)c1ccc(NN2C(C(O)c3ccc(N(C)C)cc3)C=CC3C(=O)N(c4ccccc4)C(=O)C32)cc1 (centres undefined)

>  <Numeric readout>
1.88

$$$$
>  <Molecule>
NCCCCCNC(=O)[C@H]1C[C@H]2C(=O)NCC(=O)N2[C@H]1c1cccc(OCCO)c1

>  <Numeric readout>
1.17

$$$$
>  <Molecule>
C=CC(=C)C1=CCO[C@@H]1[C@H]1CCCN1S(=O)(=O)c1ccccc1[N+](=O)[O-]

>  <Numeric readout>
0.832

$$$$
>  <Molecule>
CO[C@H]1O[C@H](CO)[C@@H](OC(=O)Nc2ccc3c(c2)OCO3)[C@H](OC(=O)Nc2ccccc2)[C@H]1OC(=O)Nc1ccccc1

>  <Numeric readout>
1.12

$$$$
>  <Molecule>
COC(=O)[C@@]1(Cc2ccc(OC)cc2)[C@H]2c3cc(C(=O)N4CCCC4)n(Cc4ccccn4)c3C[C@H]2CN1C(=O)c1ccccc1

>  <Numeric readout>
2.1

$$$$
>  <Molecule>
COCCOC(=O)N1C(=O)[C@@]2(c3ccccc31)[C@H](C(=O)Nc1nc3ccccc3s1)[C@H]1C(=O)O[C@H](c3ccccc3)[C@H](c3ccccc3)N1[C@@H]2c1ccc(OCCO)cc1

>  <Numeric readout>
0.897

$$$$

====

Biological target: E3 ubiquitin-protein ligase XIAP (Homo sapiens) (UniProt P98170)
Sequence (P98170 whole entry, looked up): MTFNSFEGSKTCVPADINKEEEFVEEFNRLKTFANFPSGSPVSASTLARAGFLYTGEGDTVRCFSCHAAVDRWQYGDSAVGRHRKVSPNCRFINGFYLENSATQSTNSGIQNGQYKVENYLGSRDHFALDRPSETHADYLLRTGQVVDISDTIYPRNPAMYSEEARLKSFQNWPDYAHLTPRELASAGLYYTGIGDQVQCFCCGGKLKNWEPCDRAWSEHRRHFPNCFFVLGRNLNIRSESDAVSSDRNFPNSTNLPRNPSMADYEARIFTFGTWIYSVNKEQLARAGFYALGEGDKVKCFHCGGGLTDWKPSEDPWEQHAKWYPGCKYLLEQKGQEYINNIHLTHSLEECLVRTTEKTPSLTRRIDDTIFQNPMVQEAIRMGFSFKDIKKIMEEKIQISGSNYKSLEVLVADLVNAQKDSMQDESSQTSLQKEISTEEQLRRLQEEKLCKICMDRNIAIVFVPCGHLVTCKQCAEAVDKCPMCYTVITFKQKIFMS
Experiment: XIAP binders, primary screen, biophysical, small-molecule microarray, fluorescence 635 nm (AID 1181);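 also: score merges 667 nm emission and signal to noise over triplicate slides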
Conditions: small-molecule microarray binding, higher = more signal

>  <Molecule>
CCC[C@@H]1C=C(C(=O)O)[C@H](c2ccc(C)cc2)N1S(=O)(=O)c1ccc(C)cc1

>  <composite z-score>
0.22

$$$$
>  <Molecule>
Cc1ccc(S[C@]2(C(=O)NC3CC3)CC(=O)N(Cc3ccccc3)[C@@H]2c2ccc(CO)cc2)cc1

>  <composite z-score>
0.0424

$$$$
>  <Molecule>
COc1ccc(C(=O)Nc2cccc(CN3C(=O)[C@]4(O[C@H](CC(=O)N5CCC[C@H]5CO)[C@@H]([Si](C)(C)c5ccc(OC)cc5)[C@@H]4C)c4ccccc43)c2)cc1

>  <composite z-score>
-0.0998

$$$$
>  <Molecule>
C=C(COC)C(=O)CC[C@@H](OC(=O)c1cccnc1)c1ccc(CO)o1

>  <composite z-score>
-0.0802

$$$$
>  <Molecule>
O=C1O[C@H](c2ccccc2)[C@H](c2ccccc2)N2[C@H]1[C@@H](C(=O)O)[C@]1(C(=O)Nc3ccc(C#CC4(O)CCCCCC4)cc31)[C@H]2c1ccc(OCCO)cc1

>  <composite z-score>
-0.0181

$$$$
>  <Molecule>
COCCOC(=O)N1C(=O)[C@@]2(c3ccccc31)[C@H](C(=O)Nc1nc3ccccc3s1)[C@H]1C(=O)O[C@H](c3ccccc3)[C@H](c3ccccc3)N1[C@@H]2c1ccc(OCCO)cc1

>  <composite z-score>
0.0641

$$$$
>  <Molecule>
COc1ccc(C#Cc2ccc3c(c2)[C@]2(C(=O)N3)[C@H](c3ccc(O)cc3)N3[C@H](c4ccccc4)[C@H](c4ccccc4)OC(=O)[C@H]3[C@@H]2C(=O)N2CCCCCCC2)cc1

>  <composite z-score>
0.536

$$$$
>  <Molecule>
O=C1O[C@H](c2ccccc2)[C@H](c2ccccc2)N2[C@H]1[C@@H](C(=O)NC[C@H](O)c1ccccc1)[C@]1(C(=O)Nc3ccc(C#CCCO)cc31)[C@H]2c1ccc(O)cc1

>  <composite z-score>
0.133

$$$$
>  <Molecule>
CC(C)=CCCC(C)=CC(O)C1C=CC2C(=O)N(c3ccccc3)C(=O)C2N1Nc1ccccc1 (centres undefined)

>  <composite z-score>
0.0655

$$$$
>  <Molecule>
O=c1cccc(CCc2ccccc2)o1

>  <composite z-score>
0.273

$$$$
>  <Molecule>
C=CC[C@@]1(C(=O)N2CCOCC2)N=C(c2ccc(OCCCO)cc2)O[C@@H]1c1ccccc1N=[N+]=[N-]

>  <composite z-score>
0.117

$$$$
>  <Molecule>
O=C/C=C/c1ccc2c(c1)OCO2

>  <composite z-score>
-0.118

$$$$
>  <Molecule>
[N-]=[N+]=Nc1ccccc1C[C@]1(C(=O)NCCN2CCOCC2)N=C(c2ccc(OCCCO)cc2)O[C@H]1c1ccccc1

>  <composite z-score>
0.0679

$$$$
>  <Molecule>
COCCOC(=O)N1C(=O)[C@@]2(c3cc(C#CCC(C(=O)OC)C(=O)OC)ccc31)[C@H](c1ccc(O)cc1)N1[C@H](c3ccccc3)[C@H](c3ccccc3)OC(=O)[C@H]1[C@@H]2C(N)=O

>  <composite z-score>
0.098

$$$$

====

Test: modulators of S6 phosphorylation in cells, primary screen, cell-based, A549, cytoblot, luminescence, serum-stimulated (AID 1158);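 also: serum-stimulated A549 lung adenocarcinoma cells; signal is phosphorylated S6 detected by cytoblot immunostaining with HRP secondary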
Settings: A549 phospho-S6 cytoblot, 5 h, higher = more signal
The entries below are paired with their reported z-score.

>  <Compound>
COC(=O)[C@@]1(Cc2ccccc2)[C@H]2c3cc(C(=O)N4CCCC4)n(Cc4ccc(C)o4)c3C[C@H]2CN1C(=O)c1ccccc1

>  <z-score>
-0.504

$$$$
>  <Compound>
COCCCNC(=O)[C@@]1(c2ccc([N+](=O)[O-])cc2)CC(=O)N(CC23CC4CC(CC(C4)C2)C3)[C@@H]1c1ccc(CO)cc1

>  <z-score>
0.0694

$$$$
>  <Compound>
C=CCOC(=O)[C@@H]1[C@H]2C(=O)O[C@H](c3ccccc3)[C@H](c3ccccc3)N2[C@H](c2ccc(OCCOC(=O)[C@@H]3C[C@@H]4C(=O)NCC(=O)N4[C@@H]3c3cccc(OCCO)c3)cc2)[C@@]12C(=O)Nc1ccc(I)cc12

>  <z-score>
-0.5

$$$$
>  <Compound>
COCCOC(=O)N1C(=O)[C@@]2(c3cc(C#CCCO)ccc31)[C@H](c1ccccc1OCCO)N1[C@H](c3ccccc3)[C@H](c3ccccc3)OC(=O)[C@H]1[C@@H]2C(=O)N1CCN(c2ncccn2)CC1

>  <z-score>
-0.262

$$$$
>  <Compound>
Cc1ccc(S[C@]2(C(=O)NCc3ccccc3)CC(=O)N(Cc3ccccc3)[C@@H]2c2ccc(CO)cc2)cc1

>  <z-score>
0.0768

$$$$
>  <Compound>
CC(C)(C)OC(=O)CC[C@@]1(C(=O)NCCN2CCOCC2)N=C(c2ccc(OCCCO)cc2)O[C@@H]1c1ccccc1

>  <z-score>
0.413

$$$$
>  <Compound>
CCOC(=O)C1=CCC(c2ccc(C#N)cc2)N(S(=O)(=O)c2ccc(C)cc2)C1 (centres undefined)

>  <z-score>
-0.118

$$$$
>  <Compound>
C[C@]1(C(=O)NCc2ccccc2)c2ccccc2C(=O)N(Cc2cc(F)cc(C(F)(F)F)c2)[C@H]1c1ccc(CO)cc1

>  <z-score>
-0.239

$$$$
>  <Compound>
CN(C)C(=O)[C@@]1(CCC(=O)OC(C)(C)C)N=C(c2ccc(OCCCO)cc2)O[C@H]1c1ccccc1

>  <z-score>
0.837

$$$$
>  <Compound>
CC(C)CNC(=O)[C@@]1(c2ccc([N+](=O)[O-])cc2)CC(=O)N(CC23CC4CC(CC(C4)C2)C3)[C@@H]1c1ccc(CO)cc1

>  <z-score>
0.802

$$$$
>  <Compound>
COc1ccc([Si](C)(C)[C@H]2[C@H](CC(=O)N(CCO)Cc3ccccc3)O[C@@]3(C(=O)N(Cc4cccc(N5CCC5=O)c4)c4ccccc43)[C@@H]2C)cc1

>  <z-score>
0.408

$$$$
>  <Compound>
CC(C)C[C@@H]1NC(=O)[C@H]2C[C@@H](C(=O)NCCCCCCNC(=O)CS)[C@@H](c3cccc(OCCO)c3)N2C1=O

>  <z-score>
-0.0016

$$$$
>  <Compound>
C=C[C@@H](COC(C)=O)N(Cc1ccccc1[N+](=O)[O-])S(=O)(=O)c1ccc(Br)cc1

>  <z-score>
3.16

$$$$
>  <Compound>
CC(C)(C)OC(=O)CC[C@]1(C(=O)N2CCCCC2)N=C(c2ccc(OCCCO)cc2)O[C@H]1c1ccccc1N=[N+]=[N-]

>  <z-score>
-0.167

$$$$
